Cited source: ChEMBL document CHEMBL1140939

# targetUnderTest: UniProt:P29274
# Sequence (P29274 whole entry): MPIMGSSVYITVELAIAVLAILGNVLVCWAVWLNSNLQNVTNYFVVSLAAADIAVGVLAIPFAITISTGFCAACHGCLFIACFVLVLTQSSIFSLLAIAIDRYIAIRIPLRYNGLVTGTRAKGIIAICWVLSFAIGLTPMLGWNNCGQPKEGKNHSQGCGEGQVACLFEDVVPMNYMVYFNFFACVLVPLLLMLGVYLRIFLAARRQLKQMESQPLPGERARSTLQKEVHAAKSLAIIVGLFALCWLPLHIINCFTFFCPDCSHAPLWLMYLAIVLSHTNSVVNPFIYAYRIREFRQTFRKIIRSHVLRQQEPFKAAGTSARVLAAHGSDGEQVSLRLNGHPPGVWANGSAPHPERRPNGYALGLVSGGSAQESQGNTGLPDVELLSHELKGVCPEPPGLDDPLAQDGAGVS
# testDetails: Displacement of [3H]ZM241385 from human adenosine A2A receptor expressed in HEK293 cells at 10 uM
# Assay type: cell-based
Threshold rule: Activity greater than or equal to 20% is met; below that, not met.

| structureString | labelValue |
| --- | --- |
| Cc1ccc(Nc2cc(NC(=O)C3CCCCC3)c3ccccc3n2)cc1 | not met |
| Clc1ccc(Nc2nc3ccccc3c3nc(C4CCCCC4)[nH]c23)cc1Cl | not met |
| O=C(Nc1cc(Nc2ccc(Cl)c(Cl)c2)nc2ccccc12)c1ccccc1 | not met |
| O=C(Nc1cc(Nc2ccc3c(c2)CCC3)nc2ccccc12)C1CCCCC1 | not met |
| Cc1ccc(Nc2cc(NC(=O)C3CCCC3)c3ccccc3n2)cc1 | met |
| O=C(Nc1cc(Nc2ccccc2)nc2ccccc12)C1CCCC1 | met |
| O=C(Nc1cc(Nc2ccccc2)nc2ccccc12)c1ccccc1 | met |
| O=C(Nc1cc(Nc2ccccc2)nc2ccccc12)C1CCCCC1 | not met |

###

# targetUnderTest: Adenosine receptor A3 (Homo sapiens)
# testDetails: Displacement of [125I]AB-MECA from human adenosine A3 receptor expressed in CHO cells at 10 uM
# Type: cell-based
Measured Activity by item

| structureString | endpointUnit | Activity |
| --- | --- | --- |
| O=C(Nc1cc(Nc2ccccc2)nc2ccccc12)c1ccco1 | % | 92 |
| O=C(Nc1cc(Nc2ccc(Cl)c(Cl)c2)nc2ccccc12)C1CCCCC1 | % | 12 |
| O=C(Nc1cc(Nc2ccc(Cl)c(Cl)c2)nc2ccccc12)c1ccccc1 | % | 11 |
| Cc1ccc(Nc2cc(NC(=O)C3CCCCC3)c3ccccc3n2)cc1 | % | -3 |
| O=C(Nc1cc(Nc2ccccc2)nc2ccccc12)C1CCC1 | % | 73 |
| O=C(Nc1cc(Nc2ccccc2)nc2ccccc12)C1CCCC1 | % | 33 |
| O=C(Nc1cc(Nc2ccc(Cl)c(Cl)c2)nc2ccccc12)C1CCC1 | % | 41 |
| O=C(Nc1cc(Nc2ccc3c(c2)CCC3)nc2ccccc12)C1CCCC1 | % | 36 |
| O=C(Nc1cc(Nc2ccc3cn[nH]c3c2)nc2ccccc12)C1CCCC1 | % | 52 |
| O=C(Nc1cc(NC2CCCC2)nc2ccccc12)C1CCCC1 | % | 42 |
| O=C(Nc1cc(NCc2ccccc2)nc2ccccc12)C1CCCC1 | % | 34 |
| COc1ccc(Nc2cc(NC(=O)C3CCCC3)c3ccccc3n2)cc1 | % | 9 |
| Cc1ccc(Nc2cc(NC(=O)C3CCCC3)c3ccccc3n2)cc1 | % | 27 |
| O=C(Nc1cc(Nc2ccc3c(c2)CCC3)nc2ccccc12)C1CCCCC1 | % | 10 |
| O=C(Nc1cc(Nc2ccccc2)nc2ccccc12)C1CCCCC1 | % | 21 |
| O=C(Nc1cc(Nc2ccc(Cl)c(Cl)c2)nc2ccccc12)c1ccco1 | % | 15 |
| O=C(Nc1cc(Nc2ccc(Cl)c(Cl)c2)nc2ccccc12)C1CCCC1 | % | 26 |
| O=C(Nc1cc(Nc2ccccc2)nc2ccccc12)c1ccccc1 | % | 46 |
| Clc1ccc(Nc2nc3ccccc3c3nc(C4CCCCC4)[nH]c23)cc1Cl | % | 3 |

###

# targetUnderTest: Adenosine receptor A1 (Homo sapiens) (UniProt P30542)
# Sequence (whole entry): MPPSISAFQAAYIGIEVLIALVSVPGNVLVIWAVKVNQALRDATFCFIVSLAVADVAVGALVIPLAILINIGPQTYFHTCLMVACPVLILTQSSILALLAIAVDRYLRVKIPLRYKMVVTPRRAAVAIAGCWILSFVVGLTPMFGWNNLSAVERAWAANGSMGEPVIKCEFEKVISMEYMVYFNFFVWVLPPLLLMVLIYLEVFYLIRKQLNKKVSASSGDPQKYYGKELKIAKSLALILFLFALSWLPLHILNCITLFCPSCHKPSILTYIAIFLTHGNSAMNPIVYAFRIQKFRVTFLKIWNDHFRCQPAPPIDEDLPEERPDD
# testDetails: Displacement of [125I]AB-MECA from human adenosine A1 receptor expressed in CHO cells at 10 uM
# Format: cell-based
Threshold rule: Activity greater than or equal to 30% is Met; below that, Not met.

| structureString | labelValue |
| --- | --- |
| O=C(Nc1cc(Nc2ccc(Cl)c(Cl)c2)nc2ccccc12)C1CCCCC1 | Not met |
| COc1ccc(Nc2cc(NC(=O)C3CCCC3)c3ccccc3n2)cc1 | Not met |
| O=C(Nc1cc(Nc2ccccc2)nc2ccccc12)c1ccccc1 | Met |
| Cc1ccc(Nc2cc(NC(=O)C3CCCC3)c3ccccc3n2)cc1 | Met |
| O=C(Nc1cc(Nc2ccccc2)nc2ccccc12)C1CCCCC1 | Not met |
| O=C(Nc1cc(NCc2ccccc2)nc2ccccc12)C1CCCC1 | Met |

###

# targetUnderTest: UniProt P30542
# testDetails: Binding affinity to human adenosine A1 receptor expressed in CHO cells assessed as enhancement of DPCPX-induced displacement of [125I]AB-MECA from receptor at 10 uM after 90 mins relative to control
# Type: cell-based
assayMetric: Activity

| structureString | targetUnderTest | testResult |
| --- | --- | --- |
| O=C(Nc1cc(Nc2ccccc2)nc2ccccc12)C1CCC1 | UniProt P30542 | 79% |
| O=C(Nc1cc(NCc2ccccc2)nc2ccccc12)C1CCCC1 | UniProt P30542 | 77% |
| Cc1ccc(Nc2cc(NC(=O)C3CCCC3)c3ccccc3n2)cc1 | UniProt P30542 | 115% |
| O=C(Nc1cc(Nc2ccc(Cl)c(Cl)c2)nc2ccccc12)C1CCC1 | UniProt P30542 | 72% |
| O=C(Nc1cc(Nc2ccc(Cl)c(Cl)c2)nc2ccccc12)c1ccccc1 | UniProt P30542 | 102% |
| O=C(Nc1cc(Nc2ccc(Cl)c(Cl)c2)nc2ccccc12)c1ccco1 | UniProt P30542 | 69% |
| Cc1ccc(Nc2cc(NC(=O)C3CCCCC3)c3ccccc3n2)cc1 | UniProt P30542 | 121% |

###

# targetUnderTest: Adenosine receptor A3 (Homo sapiens) (UniProt P0DMS8)
# Sequence (whole entry): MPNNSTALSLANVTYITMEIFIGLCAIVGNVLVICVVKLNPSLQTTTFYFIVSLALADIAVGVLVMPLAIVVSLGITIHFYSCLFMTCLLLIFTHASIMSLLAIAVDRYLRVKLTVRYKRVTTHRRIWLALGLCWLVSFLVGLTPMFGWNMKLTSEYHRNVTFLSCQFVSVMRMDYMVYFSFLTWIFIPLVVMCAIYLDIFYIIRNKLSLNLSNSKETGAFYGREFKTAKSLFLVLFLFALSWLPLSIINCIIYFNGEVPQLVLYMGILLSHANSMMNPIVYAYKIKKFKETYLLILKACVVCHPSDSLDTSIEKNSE
# testDetails: Binding affinity to human adenosine A3 receptor expressed in CHO cells assessed as enhancement of C1IB-MECA-induced displacement of [125I]AB-MECA from receptor at 10 uM after 120 mins relative to control

| structureString | targetUnderTest | endpointUnit | Activity |
| --- | --- | --- | --- |
| O=C(Nc1cc(Nc2ccccc2)nc2ccccc12)C1CCCC1 | Adenosine receptor A3 (Homo sapiens) (UniProt P0DMS8) | % | 145 |
| Cc1ccc(Nc2cc(NC(=O)C3CCCCC3)c3ccccc3n2)cc1 | Adenosine receptor A3 (Homo sapiens) (UniProt P0DMS8) | % | 220 |
| O=C(Nc1cc(Nc2ccc(Cl)c(Cl)c2)nc2ccccc12)C1CCCC1 | Adenosine receptor A3 (Homo sapiens) (UniProt P0DMS8) | % | 169 |
| O=C(Nc1cc(Nc2ccc(Cl)c(Cl)c2)nc2ccccc12)C1CCC1 | Adenosine receptor A3 (Homo sapiens) (UniProt P0DMS8) | % | 149 |
| COc1ccc(Nc2cc(NC(=O)C3CCCC3)c3ccccc3n2)cc1 | Adenosine receptor A3 (Homo sapiens) (UniProt P0DMS8) | % | 134 |

###

# targetUnderTest: Adenosine receptor A1 (Homo sapiens)
# testDetails: Displacement of [125I]AB-MECA from human adenosine A1 receptor expressed in CHO cells at 10 uM
# Assay type: cell-based

| structureString | Activity |
| --- | --- |
| O=C(Nc1cc(Nc2ccc3cn[nH]c3c2)nc2ccccc12)C1CCCC1 | 61% |
| O=C(Nc1cc(Nc2ccc3c(c2)CCC3)nc2ccccc12)C1CCCCC1 | 20% |
| O=C(Nc1cc(Nc2ccc(Cl)c(Cl)c2)nc2ccccc12)c1ccco1 | 11% |
| O=C(Nc1cc(Nc2ccccc2)nc2ccccc12)C1CCCC1 | 49% |
